# system: acyl-CoA: cholesterol acyltransferase (ACAT) (Rattus norvegicus)
# Construct: microsome fraction of the tunica mucosa intestini tenuis; from tissue; host or cells: microsome fraction of small-intestinal mucosa, Sprague-Dawley male rat (six weeks old, fasted 20 hours)
# Sequence (Q7TQM4 1-524): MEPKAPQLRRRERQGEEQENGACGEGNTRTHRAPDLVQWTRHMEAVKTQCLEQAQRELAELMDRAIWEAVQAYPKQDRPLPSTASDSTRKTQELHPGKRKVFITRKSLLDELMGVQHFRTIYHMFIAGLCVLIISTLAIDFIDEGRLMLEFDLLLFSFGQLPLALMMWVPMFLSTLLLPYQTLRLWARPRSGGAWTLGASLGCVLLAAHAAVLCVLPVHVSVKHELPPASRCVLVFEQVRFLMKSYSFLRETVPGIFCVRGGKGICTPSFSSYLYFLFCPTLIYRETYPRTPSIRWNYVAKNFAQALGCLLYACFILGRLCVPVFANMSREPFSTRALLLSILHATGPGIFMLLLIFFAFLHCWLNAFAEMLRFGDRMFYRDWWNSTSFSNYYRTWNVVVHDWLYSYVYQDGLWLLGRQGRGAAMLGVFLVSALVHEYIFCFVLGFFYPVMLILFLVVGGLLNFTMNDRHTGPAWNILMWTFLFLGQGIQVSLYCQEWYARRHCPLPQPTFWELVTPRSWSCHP
# assayMethodText: ACAT inhibitory activity (labeled cholesterol ester formation from [1-14C]oleoyl-CoA and endogenous cholesterol; microsome fraction of rat tunica mucosa intestini tenuis)
# Type: biochemical, Spregue-Dawley male rat
# runParameters: 10^-6 M; read-out: ACAT inhibitory rate (labeled cholesterol ester formation inhibitory rate)
Below, each entry is listed alongside its reported inhibition at 1 µM.

| smilesEntry | system | unitText | inhibition at 1 µM |
| --- | --- | --- | --- |
| Cc1sc2ncc(NC(=O)Nc3ccc(F)cc3F)c(-c3ccccc3Cl)c2c1C | acyl-CoA: cholesterol acyltransferase (ACAT) (Rattus norvegicus) | % | 93.9 |
| O=C(Cc1ccc(F)cc1F)Nc1cnc2sc3c(c2c1-c1ccccc1Cl)CCC3 | acyl-CoA: cholesterol acyltransferase (ACAT) (Rattus norvegicus) | % | 94.4 |
| CCc1cc2c(-c3ccccc3OC)c(NC(=O)Nc3cc(OC)c(OC(C)=O)c(OC)c3)cnc2s1 | acyl-CoA: cholesterol acyltransferase (ACAT) (Rattus norvegicus) | % | 91.9 |
| CCc1cc2c(-c3ccccc3OC)c(NC(=O)Nc3cc(C)c(OC(C)=O)c(C)c3)cnc2s1 | acyl-CoA: cholesterol acyltransferase (ACAT) (Rattus norvegicus) | % | 97.5 |
| CCc1cc2c(-c3ccccc3Cl)c(NC(=O)C=Cc3cc(OC)c(OC(C)=O)c(OC)c3)cnc2s1 | acyl-CoA: cholesterol acyltransferase (ACAT) (Rattus norvegicus) | % | 74.3 |
| CCc1cc2c(-c3ccccc3Cl)c(NC(=O)Nc3ccc(F)cc3F)cnc2s1 | acyl-CoA: cholesterol acyltransferase (ACAT) (Rattus norvegicus) | % | 98.7 |
| O=C(Nc1cnc2sc3c(c2c1-c1ccccc1Cl)CCC3)c1ccc(F)cc1F | acyl-CoA: cholesterol acyltransferase (ACAT) (Rattus norvegicus) | % | 34.4 |
| O=C(Nc1ccc(F)cc1F)Nc1cnc2sc3c(c2c1-c1ccccc1Cl)CCC3 | acyl-CoA: cholesterol acyltransferase (ACAT) (Rattus norvegicus) | % | 96.3 |

###

Below, each entry is listed alongside its reported inhibition at 1 µM.
# system: acyl-CoA: cholesterol acyltransferase (ACAT) (Rattus norvegicus)
# Construct: microsome fraction of the tunica mucosa intestini tenuis; from tissue; host or cells: microsome fraction of small-intestinal mucosa, Sprague-Dawley male rat (six weeks old, fasted 20 hours)
# assayMethodText: ACAT inhibitory activity (labeled cholesterol ester formation from [1-14C]oleoyl-CoA and endogenous cholesterol; microsome fraction of rat tunica mucosa intestini tenuis)
# Assay type: biochemical, Spregue-Dawley male rat
# runParameters: 10^-6 M; read-out: ACAT inhibitory rate (labeled cholesterol ester formation inhibitory rate)

| smilesEntry | inhibition at 1 µM |
| --- | --- |
| CCc1cc2c(-c3ccccc3Cl)c(NC(=O)Nc3ccc(F)cc3F)c(=O)n(C)c2s1 | 99.6% |
| CCc1cc2c(-c3ccccc3Cl)c(NC(=O)Nc3ccc(Cl)cc3)cnc2s1 | 93.6% |
| Cc1ccccc1-c1c(NC(=O)Nc2ccc(F)cc2F)cnc2sc(Cl)cc12 | 94.5% |
| Cc1cc2c(-c3ccccc3Cl)c(NC(=O)Nc3ccc(F)cc3F)cnc2s1 | 95.1% |
| Cc1ccccc1-c1c(NC(=O)Nc2ccc(F)cc2F)cnc2sccc12 | 60.2% |
